assay: blockers of RIG-like receptor reporter activation – cell-based, Sendai virus stimulus, luciferase, 10K MLSCN set, TLR/RLR signaling modifier project, primary screen (AID 602276); conditions: HEK293 RL24 IRF3 luciferase reporter, at 10 µM, stronger effect = higher value;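 also: firefly luciferase from ISG56 promoter only with Renilla not read in this screen; 0% = Sendai virus plus DMSO and 100% = medium plus DMSO without virus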
Value Kind: inhibition (%)
Supply the numeric figure in %, leaving out any unit text.

Some entries whose results are on file:
O=C(O)CCNc1ccc2c(c1)OCCO2
4.8
CSc1c(CC(=O)NCCO)n(C)c2ccccc12
1.14
COC(=O)c1c(C)oc2ccc(NS(=O)(=O)c3cccs3)cc12
20.8
O=C(CSc1nnc2sc3ccccc3n12)c1ccco1
-17.8
CCCCc1c(O)nc(SCC(=O)Nc2ccc3c(c2)CCC3)[nH]c1=O
10.6

Now consider a different compound.
Problem: Item under review: CCc1nnc(NC(=O)c2ccc(S(=O)(=O)NCC(C)C)cc2)s1 . Reported inhibition?
Solution: -15.9

###

target: Voltage-gated potassium channel subunit beta-2 (Rattus norvegicus) (UniProt P62483); assay: inhibitors of rat Kvbeta2 reductase activity – biochemical, NADPH fluorescence, primary screen (AID 622); details: recombinant KvBeta, 4-cyanobenzaldehyde reduction, at 10 µM, stronger effect = higher value;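 also: slope of raw intensity against log time taken from 70 to 1610 s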
Sequence (P62483 whole entry, looked up): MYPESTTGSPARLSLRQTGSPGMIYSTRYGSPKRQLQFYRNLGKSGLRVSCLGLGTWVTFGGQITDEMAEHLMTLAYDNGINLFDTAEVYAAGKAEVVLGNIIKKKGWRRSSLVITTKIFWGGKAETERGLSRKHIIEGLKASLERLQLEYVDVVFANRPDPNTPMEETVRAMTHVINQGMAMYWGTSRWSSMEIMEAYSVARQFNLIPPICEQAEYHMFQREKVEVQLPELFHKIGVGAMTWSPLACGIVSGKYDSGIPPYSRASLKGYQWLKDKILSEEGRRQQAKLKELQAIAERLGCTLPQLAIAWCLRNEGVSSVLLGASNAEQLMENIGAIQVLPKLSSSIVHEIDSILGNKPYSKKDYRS
Activity calls are given as the source filed them.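 The calls were made as follows: active = fluorescence slope higher than the sample average by over 3 SD (cut at about -0.22 in these data, passing the limit was not always enough); inactive = the rest.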
Overview of recorded fluorescence slope for various compounds

Some entries whose results are on file:
CCCn1c2ccccc2c2nnc(SCC(=O)Nc3ncccn3)nc21
-0.551 (inactive)
Cc1ccc(C)c(N2CCN(C(=O)c3ccc(CS(=O)(=O)c4ccccc4C)o3)CC2)c1
-0.555 (inactive)
CC(C)(C)OC(=O)N1CCC(C(=O)N2CCCCCC2)CC1
-0.529 (inactive)
CCCN1C(=O)c2cc(C(=O)O)ccc2C1O (stereo not drawn)
-0.514 (inactive)
Cc1ccc(Cn2c(C(=O)NCCCN3CCOCC3)cc3sccc32)cc1
-0.486 (inactive)
CCOC(=O)C1CCN(C(=O)C2CCN(S(=O)(=O)c3cc(Cl)ccc3Cl)CC2)CC1
-0.542 (inactive)
COc1ccc2cc(C#N)c(N3CCN(Cc4nnnn4CCC(C)C)CC3)nc2c1
-0.379 (inactive)
Cc1ccc(S(=O)(=O)N2CCN(c3nc(C)nc4sc(C)c(C)c34)CC2)cc1
-0.387 (inactive)

Problem: Item under review: O=C(CN(Cc1cccs1)C(=O)CNS(=O)(=O)c1ccccc1)NCc1ccco1 . Reported fluorescence slope?
Solution: -0.594 (inactive)

Problem: Item under review: CN1CCN(c2nc3c(c(=O)[nH]c(=O)n3C)n2CCOc2ccccc2)CC1 . Reported fluorescence slope?
Solution: -0.489 (inactive)

###

Overview of recorded NADPH fluorescence slope for various compounds
target: Voltage-gated potassium channel subunit beta-2 (Rattus norvegicus); test: enhancers of rat Kvbeta2 NADPH turnover – biochemical, NADPH fluorescence, primary screen (AID 623); details: Recombinant KvBeta, NADPH fluorescence decrease slope, 10 min; at 10 µM; stronger effect = lower value;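 also: fluorescence intensity change per second fitted from 20 to 320 s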
Activity calls are given as the source filed them.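 Rule for the calls: active = NADPH fluorescence slope more negative than the mean of all samples by about 3 SD, 99.7% confidence; inactive = the rest.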

Some entries whose results are on file:
Cc1ccc2cc(C(c3nnnn3CC3CCCO3)N3CCc4ccccc4C3)c(=O)[nH]c2c1 (stereo unspecified)
-3.7e-05 (inactive)
COc1ccc(S(=O)(=O)N2CCN(S(=O)(=O)c3ccc4c(c3)OCCO4)CC2)cc1C
-5.5e-05 (inactive)
CCn1c(-c2cc(Br)ccc2O)n[nH]c1=S
-3.5e-05 (inactive)

Problem: Item under review: COc1ccc(CC(=O)OCC(=O)NC(=O)NC2CCCCC2)cc1 . Reported NADPH fluorescence slope?
Solution: 4.4e-05 (inactive)

Problem: Item under review: CC(C)(C)c1cc(NC(=O)c2cc(F)c(F)c(F)c2F)no1 . Reported NADPH fluorescence slope?
Solution: -6.8e-06 (inactive)

Problem: Item under review: COc1ccc(NC(=O)Nc2ccc(N3CCCC3=O)cc2)cc1OC . Reported NADPH fluorescence slope?
Solution: -3.2e-05 (inactive)

Problem: Item under review: Cc1ccc(C)n1-n1c(C)nc2sc(-c3ccccc3)cc2c1=O . Reported NADPH fluorescence slope?
Solution: 3.8e-06 (inactive)

Problem: Item under review: COc1cccc(CNC(=O)C2CCN(c3cnccn3)CC2)c1 . Reported NADPH fluorescence slope?
Solution: 5.8e-06 (inactive)

Problem: Item under review: COc1ccc(C(=O)N2CCN(C3CCCCC3)CC2)c(OC)c1 . Reported NADPH fluorescence slope?
Solution: -1.5e-05 (inactive)

Problem: Item under review: O=C(NCC(=O)N(c1cccnc1)C(C(=O)NC1CCCCC1)c1cccnc1)c1ccco1 (stereo unspecified) . Reported NADPH fluorescence slope?
Solution: -5.1e-05 (inactive)

Problem: Item under review: O=C(c1cccc(Cl)c1)N1CCN(Cc2ccncc2)CC1 . Reported NADPH fluorescence slope?
Solution: 0.000145 (inactive)

###

assay: reduction of polyQ htt aggregates in cells – imaging, exon1htt(103Q)mCFP cells, high-content imaging, primary screen (AID 483); details: exon1htt(103Q)mCFP cell line, aggregate imaging, at 2 µM; stronger effect = higher value;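 also: compound exposure lasted 3 days before fixation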
Value Kind: inhibition of aggregation (%)
Supply the numeric figure in %, leaving out any unit text.

Some entries whose results are on file:
COC(=O)Cn1c2ccccc2c2nc(C)sc21
-14.3
Cc1ccc(OCc2nnc(SCC(=O)Nc3ccc4c(c3)OCO4)n2C)cc1
7.6
O=C(COc1ccc(F)cc1)Nc1ccc(-n2cnnn2)cc1
34.2
COc1ccc(CC(=O)OCC(=O)NC(=O)NC2CCCCC2)cc1
-0.9
CCN1CCN(C(=O)c2cn(CC)c3ccc(S(=O)(=O)N(C)C)cc3c2=O)CC1
12.4

Problem: Item under review: CCOC(OCC)P(=O)(C(C)C)C(C)C . Reported inhibition of aggregation?
Solution: -0.1

Problem: Item under review: CCOc1ccc2c(c1)n(CO)c(=S)n2CO . Reported inhibition of aggregation?
Solution: 4.4

Problem: Item under review: CS(=O)(=O)NCc1ccc(C(=O)NCc2ccccc2)cc1 . Reported inhibition of aggregation?
Solution: 0

Problem: Item under review: Cc1cccc(NC(=O)CC2CCC2)c1 . Reported inhibition of aggregation?
Solution: 3

Problem: Item under review: C#CCSc1nnc(-c2ccccc2)c(=O)[nH]1 . Reported inhibition of aggregation?
Solution: 0.6

Problem: Item under review: CC(C)COC(=O)C1[C@H]2C(=O)N(Cc3cccs3)C[C@]23C=C[C@H]1O3 (some centres not stated) . Reported inhibition of aggregation?
Solution: -2.4

Problem: Item under review: CC(C)COc1ccc(C(=O)OCCN2CCOCC2)cc1 . Reported inhibition of aggregation?
Solution: -8.6

###

Overview of recorded nuclei count for various compounds
experiment: endothelial E-selectin expression blockers – imaging, HUVEC, immunofluorescence, MLSMR starter and 10KST1 sets, primary screen (AID 487); conditions: HUVEC TNFalpha-induced E-selectin immunofluorescence imaging, at 2 µM; measured here: cell number, toxicity;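 also: 100% = median nuclei count of all wells on the same plate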
Supply the numeric figure in %, leaving out any unit text.

Some entries whose results are on file:
CCSc1ccccc1C(=O)NCc1ccc(S(N)(=O)=O)cc1
120
CCOC(=O)C1C(=O)N(C(=O)c2ccc(OC)cc2)CC1c1ccccc1 (stereo unspecified)
128
COC(=O)Cn1c2ccccc2c2nc(C)sc21
125
O=S(=O)(c1ccc(OCC(O)CN2CCC(Cc3ccccc3)CC2)cc1)N1CCOCC1 (stereo unspecified)
116
O=S1(=O)C=CC(Nc2cccc(Cl)c2)C1 (stereo unspecified)
98.1

Now consider a different compound.
Problem: Item under review: CC1(C)Cc2noc(N)c2C(C)(C)N1OC(=O)c1ccccc1 . Reported nuclei count?
Solution: 126

###

Overview of recorded inhibition for various molecules
assay: blockers of RIG-like receptor reporter activation – cell-based, Sendai virus stimulus, luciferase, 10K MLSCN set, TLR/RLR signaling modifier project, primary screen (AID 602276); conditions: HEK293 RL24 IRF3 luciferase reporter, at 10 µM, stronger effect = higher value;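 also: firefly luciferase from ISG56 promoter only with Renilla not read in this screen; 0% = Sendai virus plus DMSO and 100% = medium plus DMSO without virus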
Supply the numeric figure in %, leaving out any unit text.

Some entries whose results are on file:
Oc1c(Cl)cc(Cl)c2c1NCCC2
11.2
Cc1ccc(-c2nc3cc(NC(=O)C(C)C)ccc3o2)cc1
-10.9
COc1ccccc1OCc1ccc(C(=O)N2CCN(C(=O)c3ccco3)CC2)cc1
1.91

Now consider a different molecule.
Problem: Item under review: Cc1ccccc1NS(=O)(=O)c1ccc(NC(=O)c2ccco2)cc1 . Reported inhibition?
Solution: 15.3

###

Overview of recorded nuclei count for various compounds
test: reduction of polyQ htt aggregates in cells – imaging, exon1htt(103Q)mCFP cells, high-content imaging, primary screen (AID 483); details: exon1htt(103Q)mCFP cell line, aggregate imaging, at 2 µM; measured here: cell count, toxicity;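 also: compound exposure lasted 3 days before fixation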;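 as to nuclei count: percent of the per-plate median nuclei count of sample wells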
Supply the numeric figure in %, leaving out any unit text.

Some entries whose results are on file:
COc1ccc(CCNC(=O)CSc2nnnn2-c2ccccc2OC)cc1OC
106
CCOC(=O)c1cnc(-n2nc(C)cc2C)nc1Nc1ccc(N(C)C)cc1
84
COC(=O)c1cnn2c(C(F)(F)F)cc(-c3ccco3)nc12
75.8

Problem: Item under review: COC(=O)CCn1nnc(-c2ccc(C)cc2)n1 . Reported nuclei count?
Solution: 110

Problem: Item under review: CCCC1CC(C)(C(=O)Cn2[nH]c(=O)ccc2=O)OC1=O (stereo unspecified) . Reported nuclei count?
Solution: 120

Problem: Item under review: Cc1ccc(-c2nnc(SCC(=O)N3CC(C)CC(C)C3)o2)cc1C (stereo unspecified) . Reported nuclei count?
Solution: 32.1
